- Tested on: DiFi (Colorectal Carcinoma)
- method.summary: Bliss excess, mean over the matrix (fraction); higher = more synergy;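 further: after 72 h of two-drug dosing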
Here, each record is paired with measured Bliss excess data.
I'd appreciate a reply containing only the number, no unit.

compound="COc1cccc(OCCCN)c1-c1cc(Nc2cnc(C#N)cn2)n[nH]1 [Prexasertib] + Cc1cc2ncnn2cc1Nc1ncc2c(n1)n(C1CCOCC1)c(=O)n2C [AZD7648] (first compound max 1 µM, 7x7, partner max 10 µM)" readout_name="Bliss excess" assay_value=-0.0046

Fill blank: measured Bliss excess of the compound Cc1cc2ncnn2cc1Nc1ncc2c(n1)n(C1CCOCC1)c(=O)n2C [AZD7648] + C=CCn1c(=O)c2cnc(Nc3ccc(N4CCN(C)CC4)cc3)nc2n1-c1cccc(C(C)(C)O)n1 [AZD1775] (first compound max 10 µM, partner max 1 µM) is ____. -0.0013

Now the compound COc1nnc2ccc(N3CCC(c4ccc(OCCN5CCN(C)C(=O)[C@H]5C)cc4)CC3)nn12 [AZD5153] + CCN(CCO)CCCOc1ccc2c(Nc3cc(CC(=O)Nc4cccc(F)c4)[nH]n3)ncnc2c1 [AZD2811] (first compound max 1 µM, 7x7, partner max 1 µM) -0.068

And for COc1cccc(OCCCN)c1-c1cc(Nc2cnc(C#N)cn2)n[nH]1 [Prexasertib] + CCc1c2c(nc3ccc(O)cc13)-c1cc3c(c(=O)n1C2)COC(=O)[C@]3(O)CC [SN-38] (first compound max 1 µM, 7x7, partner max 0.3 µM) ? -0.0153

// same read-out, input: Cc1c2c(nn1C)CSCc1cc(n(C)n1)CSc1cc(c3ccccc3c1)OCCCc1c(C(=O)O)n(C)c3c-2c(Cl)ccc13 [AZD5991] + C[C@@H]1COCCN1C2=NC(=NC(=C2)C3(CC3)[S@](=N)(=O)C)C4=C5C=CNC5=NC=C4 [AZD6738] (first compound max 1 µM, 7x7, partner max 10 µM) 0.0302

Can you check Cc1c2c(nn1C)CSCc1cc(n(C)n1)CSc1cc(c3ccccc3c1)OCCCc1c(C(=O)O)n(C)c3c-2c(Cl)ccc13 [AZD5991] + Cn1cnc2c(F)c(Nc3ccc(Br)cc3Cl)c(C(=O)NOCCO)cc21 [Selumetinib] (first compound max 1 µM, 7x7, partner max 3 µM) next? 0.0064

For Cc1c2c(nn1C)CSCc1cc(n(C)n1)CSc1cc(c3ccccc3c1)OCCCc1c(C(=O)O)n(C)c3c-2c(Cl)ccc13 [AZD5991] + CN(C)CCCOc1ccc(-c2ccc3ncc4c(c3c2)n(C2CCOCC2)c(=O)n4C)cn1 [AZD0156] (first compound max 1 µM, 7x7, partner max 1 µM) then? -0.0112

###

- Test system: BFTC-905 (Bladder Carcinoma)
- method.summary: Bliss excess, mean over the matrix (fraction); higher = more synergy
readout.name: Bliss excess
Field format: numeric only.

See these solved cases before continuing.
compound="Cc1c2c(nn1C)CSCc1cc(n(C)n1)CSc1cc(c3ccccc3c1)OCCCc1c(C(=O)O)n(C)c3c-2c(Cl)ccc13 [AZD5991] + Nc1ccn([C@@H]2O[C@H](CO)[C@@H](O)C2(F)F)c(=O)n1 [Gemcitabine] (first compound max 1 µM, 7x7, partner max 0.3 µM)" assay_value=-0.0194
compound="CCc1c2c(nc3ccc(O)cc13)-c1cc3c(c(=O)n1C2)COC(=O)[C@]3(O)CC [SN-38] + CN(C)CCCOc1ccc(-c2ccc3ncc4c(c3c2)n(C2CCOCC2)c(=O)n4C)cn1 [AZD0156] (first compound max 0.3 µM, 7x7, partner max 1 µM)" assay_value=0.0608

Proceed to the following item.
If you can, please state the reported Bliss excess value of CN(CCO)CC[C@H](CSc1ccccc1)Nc1ccc(S(=O)(=O)NC(=O)c2ccc(N3CCC([C@@H](O)c4ccccc4-c4ccc(Cl)cc4)CC3)cc2)cc1S(=O)(=O)C(F)(F)F [AZD4320] + C=CCn1c(=O)c2cnc(Nc3ccc(N4CCN(C)CC4)cc3)nc2n1-c1cccc(C(C)(C)O)n1 [AZD1775] (first compound max 1 µM, partner max 1 µM) . -0.029

meta.source: the supplement of paper PMC11061612
